System: Francisella tularensis
Assay Summary: Antibacterial activity against Francisella tularensis LVS after 18 hrs by Microplate Alamar Blue assay
Format: functional

- Chemical Smiles: "CCN(CC)c1cc2[nH]c(-c3ccccc3)nc2cc1NC(=O)c1ccc(C)cc1"
  Study System: "Francisella tularensis"
  MIC90: "12.9 µg/mL"
- Chemical Smiles: "CCN(CC)c1cc2[nH]c(-c3ccc(C)cc3)nc2cc1NC(=O)C1CCC1"
  Study System: "Francisella tularensis"
  MIC90: "1.16 µg/mL"
- Chemical Smiles: "O=C(Nc1cc2nc(-c3cccs3)[nH]c2cc1N1CCCCC1)OCc1ccccc1"
  Study System: "Francisella tularensis"
  MIC90: "0.98 µg/mL"
- Chemical Smiles: "CCN(CC)c1cc2[nH]c(-c3ccccc3OC)nc2cc1NC(=O)C1CCC1"
  Study System: "Francisella tularensis"
  MIC90: "7.59 µg/mL"
- Chemical Smiles: "CCOC(=O)Nc1cc(NC(=O)c2ccccc2)c2[nH]c(-c3ccco3)nc2c1"
  Study System: "Francisella tularensis"
  MIC90: "3.8 µg/mL"

Data origin, for the record: ChEMBL document CHEMBL2384967
